Data provenance is PubChem BioAssay AID2060627.

- Tested on: 156681-154-R-J1-PDC complex spheroid viability
- protocol_description: Anticancer human tumor 156681-154-R-J1-PDC patient-derived melanoma cell line growth inhibition [CLK]
- run_parameters: second compound 3.16 µM; first compound 0.316 µM; active compounds read low
- Description: A high-throughput screen of multi-cell type tumor spheroids was designed to identify active combinations of […] and targeted small molecules. Complex spheroids include a stromal component modeled by human endothelial cells (HUVEC) and fibroblasts modeled by human mesenchymal stem cells (MSCs). […] Compounds. […] If the clinical Cmax for an agent had not been determined, the highest concentration tested was 10 microM. […]
Cut-off 2% on viability, T/C: below means 1 (yes), at or above means 0 (no).

[[record]]
molecule = "C#Cc1c(F)ccc2cc(O)cc(-c3ncc4c(N5CC6CCC(C5)N6)nc(OCC56CCCN5CC(F)C6)nc4c3F)c12 (stereo not given) + CNC(=O)c1ccc(Nc2nc(OC3CCCC3)c3c(-c4ccc5nc(C)oc5c4)c[nH]c3n2)c(OC)c1"
measured_on = "156681-154-R-J1-PDC complex spheroid viability"
group_label = "0 (no)"

[[record]]
molecule = "COc1ccc([C@@H](O)c2cc(-c3ncnc4cc(N5CCOCC5)ccc34)c(F)cc2Cl)nn1 + CN1CCN(c2cc(C(=O)Nc3cc4cc(-c5cnn(C)c5)ccc4cn3)ccn2)CC1"
measured_on = "156681-154-R-J1-PDC complex spheroid viability"
group_label = "1 (yes)"

[[record]]
molecule = "C=C(F)C(=O)N1CCN(c2nc(OCC3CCCN3C)nc3c2CCN(c2cccc4cccc(Cl)c24)C3)CC1CC#N (stereo not given) + CNC(=O)c1ccc(Nc2nc(OC3CCCC3)c3c(-c4ccc5nc(C)oc5c4)c[nH]c3n2)c(OC)c1"
measured_on = "156681-154-R-J1-PDC complex spheroid viability"
group_label = "0 (no)"

[[record]]
molecule = "CCN1CCN(Cc2ccc(Nc3ncc(F)c(-c4cc(F)c5nc(C)n(C(C)C)c5c4)n3)nc2)CC1 + CNC(=O)c1ccc(Nc2nc(OC3CCCC3)c3c(-c4ccc5nc(C)oc5c4)c[nH]c3n2)c(OC)c1"
measured_on = "156681-154-R-J1-PDC complex spheroid viability"
group_label = "0 (no)"

[[record]]
molecule = "CCN1CCN(Cc2ccc(Nc3ncc(F)c(-c4cc(F)c5nc(C)n(C(C)C)c5c4)n3)nc2)CC1 + CN1CCN(c2cc(C(=O)Nc3cc4cc(-c5cnn(C)c5)ccc4cn3)ccn2)CC1"
measured_on = "156681-154-R-J1-PDC complex spheroid viability"
group_label = "0 (no)"


Consider now this further molecule.
## Input is_below(viability, T/C, 2%) for Nc1ccn(C2OC(CO)C(O)C2(F)F)c(=O)n1 (stereo not given) + CNC(=O)c1ccc(Nc2nc(OC3CCCC3)c3c(-c4ccc5nc(C)oc5c4)c[nH]c3n2)c(OC)c1 ?
## Output 0 (no)

* * *

Give measured viability, T/C for each item. Keep answers brief.
- System: 156681-154-R-J1-PDC complex spheroid viability
- protocol_description: Anticancer human tumor 156681-154-R-J1-PDC cell line growth inhibition [CLK];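 note: spheroids exposed to the agents for seven days; 100% = DMSO vehicle control viability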
- run_parameters: second compound 0.0316 µM; first compound 0.3 µM; active compounds read low

[[record]]
compound = "CC(C)CC(NC(=O)C(Cc1ccccc1)NC(=O)c1cnccn1)B(O)O (stereo not drawn) + CN1CCN(c2cc(C(=O)Nc3cc4cc(-c5cnn(C)c5)ccc4cn3)ccn2)CC1"
recorded_measurement = "1.32%"

[[record]]
compound = "NC(=O)C(=Cn1cnc(-c2cc(C(F)(F)F)cc(C(F)(F)F)c2)n1)c1cncnc1 + CNC(=O)c1ccc(Nc2nc(OC3CCCC3)c3c(-c4ccc5nc(C)oc5c4)c[nH]c3n2)c(OC)c1"
recorded_measurement = "14%"


# ---- query compound ----
## Input viability, T/C for CC(C)CC(NC(=O)C(Cc1ccccc1)NC(=O)c1cnccn1)B(O)O (stereo not drawn) + CNC(=O)c1ccc(Nc2nc(OC3CCCC3)c3c(-c4ccc5nc(C)oc5c4)c[nH]c3n2)c(OC)c1 ?
## Output 1.15%
